# credit: ChEMBL document CHEMBL1157539

# key: entry, value: XC50
Test system: Plasmodium falciparum
Test: GSK_TCMDC: Inhibition of Plasmodium falciparum 3D7 in whole erythrocytes, using parasite LDH activity as an index of growth.
Format: functional, organism-based
Conditions: Plasmodium falciparum, 3D7
Assay Endpoint: XC50 (nM)

compound=FC(F)(F)c1ccc(CNCC2CCN(Cc3ccc4c(c3)OCO4)CC2)cc1 experimental_system="Plasmodium falciparum" unit_spec=nM experimental_result=1360
compound=Cc1noc(C)c1-c1cccc(CNCc2cccc(-c3ccc(-c4nc5cccc(C)c5[nH]4)cc3)c2)c1 experimental_system="Plasmodium falciparum" unit_spec=nM experimental_result=191
compound="COc1ccc(C2CCC(NCCCCNC(=O)c3ccc(NC(=O)c4ccc(Cl)cc4)cc3)CC2)cc1 (stereo not given)" experimental_system="Plasmodium falciparum" unit_spec=nM experimental_result=627
compound=O=C(NCc1cccc(F)c1)c1ccc(O)c(-c2cc(Cl)cc(Cl)c2)c1 experimental_system="Plasmodium falciparum" unit_spec=nM experimental_result=559
compound=CC(=Nc1ccc(Cl)c(Cl)c1)N(C)C experimental_system="Plasmodium falciparum" unit_spec=nM experimental_result=540
compound=Cc1cc(NC(=O)Nc2ccc3ncccc3c2)c2ccccc2n1 experimental_system="Plasmodium falciparum" unit_spec=nM experimental_result=956
compound=CCOc1ccc2ccccc2c1CNCCCCCCNCc1c(OCC)ccc2ccccc12 experimental_system="Plasmodium falciparum" unit_spec=nM experimental_result=576
compound=O=C(c1cc(-c2cccs2)n[nH]1)N1CCN(S(=O)(=O)c2ccc(Cl)s2)CC1 experimental_system="Plasmodium falciparum" unit_spec=nM experimental_result=868
compound=CC(C)CCNc1nc(NCc2ccccc2)c2cc(O)ccc2n1 experimental_system="Plasmodium falciparum" unit_spec=nM experimental_result=105
compound=CN(C)CCOc1cc(NC(=O)Nc2ccc(-c3ccccc3)cc2)ccc1I experimental_system="Plasmodium falciparum" unit_spec=nM experimental_result=595
compound="CC1N=C(N)N=C(N)N1OCc1cccc2ccccc12 (stereo not given)" experimental_system="Plasmodium falciparum" unit_spec=nM experimental_result=3.2
compound=CN(CCN(C)C(=O)NCc1ccccc1)C(=O)NCc1ccccc1 experimental_system="Plasmodium falciparum" unit_spec=nM experimental_result=930
compound=CCCN(CCC)CCCOc1ccc(C(=O)c2c(-c3ccc(OCCCN(CCC)CCC)cc3)oc3ccc(Cl)cc23)cc1 experimental_system="Plasmodium falciparum" unit_spec=nM experimental_result=340
compound=Cc1cc(OCCCN2CCC(NS(=O)(=O)c3ccc(C(F)(F)F)cc3)CC2)c2ccccc2n1 experimental_system="Plasmodium falciparum" unit_spec=nM experimental_result=1220
compound=Nc1ncc(-c2ccc(S(=O)(=O)Nc3ccc(C(=O)N[C@@H](CCC(=O)O)C(=O)O)cc3)cc2)c(=O)[nH]1 experimental_system="Plasmodium falciparum" unit_spec=nM experimental_result=803
compound=CCOc1ccc(-c2nonc2NC(=O)c2ccc(OC(C)C)cc2)cc1OCC experimental_system="Plasmodium falciparum" unit_spec=nM experimental_result=601
compound=CN(C)CCCNCCS(=O)(=O)c1cccc(Nc2ccc(-c3cccc(N(C)C)c3)cn2)c1 experimental_system="Plasmodium falciparum" unit_spec=nM experimental_result=859
compound="O=C(Nc1cccc(F)c1)NC1CCN(c2ccnc3cc(Cl)ccc23)C1 (stereo not given)" experimental_system="Plasmodium falciparum" unit_spec=nM experimental_result=189
compound="CN(C)CC(O)COc1ccc(Nc2ncc([N+](=O)[O-])c(Nc3ccccc3O)n2)cc1 (stereo not given)" experimental_system="Plasmodium falciparum" unit_spec=nM experimental_result=762
compound=Cc1cccc2nc(-c3cccc(-c4ccc(NC(=O)Nc5cccc(C#N)c5)cc4)c3)[nH]c12 experimental_system="Plasmodium falciparum" unit_spec=nM experimental_result=187
